test-target: Autotaxin (Homo sapiens, UniProt Q13822)
experiment-notes: Inhibition of ENPP2 (unknown origin) at 50 uM relative to control
measurement-name: inhibition (%)
Just the number please, in %, no unit attached.

Which inhibition is listed for `Cc1nc2ncnn2c(N(C)C)c1Cc1ccccc1[N+](=O)[O-]` ?
4.7

# lookup: inhibition of `Cc1nc2ncnn2c(N(C)C)c1Cc1ccc(N)cc1`
7.7

Which inhibition is listed for `Cc1nc2ncnn2c(NCCCCC(=O)O)c1Cc1cccc(N)c1` ?
27

Value lookup for inhibition; key = `Cc1cccc(Cc2c(C)nc3ncnn3c2N(C)C)c1`
9.7

Suppose we examine the compound `Cc1nc2ncnn2c(N(C)C)c1Cc1ccccc1` ; what inhibition value has been reported?
31

Fill in the blank: the reported inhibition of `Cc1nc2ncnn2c(N(C)C)c1Cc1ccc(Cl)cc1` is ____.
4.9

Entry under review: `Cc1nc2ncnn2c(N(C)C)c1Cc1cccc(-c2ccccc2)c1` . Reported inhibition?
6.1

Which inhibition value is on record for `C#CCNc1c(Cc2ccccc2)c(C)nc2ncnn12` ?
1.4

Reported inhibition for `CCCN(CCC)c1c(Cc2ccccc2)c(C)nc2ncnn12` : what is it?
5.5

Entry `Cc1nc2ncnn2c(N(C)C)c1Cc1cccc(F)c1` has what inhibition?
14

* * *

Please provide measured pIC50 for the entries that follow.
test-target: Ectonucleotide pyrophosphatase/phosphodiesterase family member 1 (Homo sapiens)
Sequence (P22413 whole entry): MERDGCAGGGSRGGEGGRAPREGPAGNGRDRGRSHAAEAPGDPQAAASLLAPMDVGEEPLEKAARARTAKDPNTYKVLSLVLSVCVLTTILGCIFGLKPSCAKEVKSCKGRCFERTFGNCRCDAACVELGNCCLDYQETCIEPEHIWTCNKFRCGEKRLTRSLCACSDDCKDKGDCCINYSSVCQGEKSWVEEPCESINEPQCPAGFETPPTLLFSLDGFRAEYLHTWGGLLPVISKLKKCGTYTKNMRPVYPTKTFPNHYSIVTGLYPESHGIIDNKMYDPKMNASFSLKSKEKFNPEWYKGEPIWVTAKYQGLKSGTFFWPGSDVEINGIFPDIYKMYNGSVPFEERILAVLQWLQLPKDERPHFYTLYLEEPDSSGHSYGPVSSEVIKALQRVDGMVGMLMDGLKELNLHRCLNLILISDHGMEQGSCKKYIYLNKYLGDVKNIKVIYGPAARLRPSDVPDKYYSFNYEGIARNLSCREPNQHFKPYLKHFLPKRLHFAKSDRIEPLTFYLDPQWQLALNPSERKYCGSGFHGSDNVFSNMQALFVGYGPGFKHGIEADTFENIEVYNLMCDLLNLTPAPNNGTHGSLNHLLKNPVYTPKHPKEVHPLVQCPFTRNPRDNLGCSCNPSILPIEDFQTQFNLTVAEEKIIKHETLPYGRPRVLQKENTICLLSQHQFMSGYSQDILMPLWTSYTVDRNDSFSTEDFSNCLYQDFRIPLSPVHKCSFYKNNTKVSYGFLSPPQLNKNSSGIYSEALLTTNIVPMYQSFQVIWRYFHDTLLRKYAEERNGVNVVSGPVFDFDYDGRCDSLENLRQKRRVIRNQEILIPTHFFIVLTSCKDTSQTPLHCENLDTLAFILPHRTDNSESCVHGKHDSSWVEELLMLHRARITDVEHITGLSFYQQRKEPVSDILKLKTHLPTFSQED
experiment-notes: Inhibition of ENPP1 (unknown origin)
The meaning of pIC50 here: minus log10 of the concentration in molar units.

Record request: pIC50 value, item `Cc1nc2ncnn2c(N(C)C)c1Cc1ccccc1[N+](=O)[O-]`
5.51

Value lookup for pIC50; key = `Cc1nc2ncnn2c(N(C)C)c1Cc1cccc(O)c1`
6.38

Look at this compound and give its reported pIC50. `Cc1nc2ncnn2c(N(C)C)c1Cc1cccc(-c2ccccc2)c1`
4.68

Give its pIC50 value. Item: `Cc1nc2ncnn2c(N(C)C)c1Cc1ccc([N+](=O)[O-])cc1`
4.68

Query: pIC50; subject: `Cc1nc2ncnn2c(NCc2cccnc2)c1Cc1cccc(N)c1`
5.15

Item under review: `Cc1nc2ncnn2c(N(C)C)c1Cc1cccc(Cl)c1` . Reported pIC50?
5.96

Can you look up the measured pIC50 of `Cc1nc2ncnn2c(NCCCCC(=O)O)c1Cc1cccc(N)c1` for me?
5.44

Look up pIC50 for this compound: `Cc1nc2ncnn2c(NCc2ccccc2)c1Cc1cccc(N)c1`
5.05

// lookup pIC50 for `Cc1cc(N(C)C)n2ncnc2n1`
4.55

Recorded pIC50 for `COc1ccc(Cc2c(C)nc3ncnn3c2N(C)C)cc1OC` , please?
5.89

# query: pIC50 of entry `Cc1nc2ncnn2c(NCCCC(=O)O)c1Cc1cccc(N)c1`
4.96

What value of pIC50 has been reported for the following compound? `Cc1cccc(Cc2c(C)nc3ncnn3c2N(C)C)c1`
5.51

Endpoint output: pIC50 of `CC(=O)Nc1cccc(Cc2c(C)nc3ncnn3c2N(C)C)c1` . Value?
5.64

What does the data say about its pIC50? Entry: `Cc1nc2ncnn2c(NCc2ccc(C(=O)O)cc2)c1Cc1cccc(N)c1`
5.96

State the recorded pIC50 for this entry: `Cc1nc2ncnn2c(N(C)C)c1Cc1ccccc1`
6.13

So what's the measured pIC50 for this one? `CCCNc1c(Cc2ccccc2)c(C)nc2ncnn12`
4.49

Where these numbers come from: ChEMBL document CHEMBL5576074
